- System: T-cell
- PROCEDURE DETAILS: CD25 cell surface staining on T-cells co-stimulated with anti-CD3 and anti-CD28 antibody (Biological Example 2)
- Format: cell-based, human
- STATED CONDITIONS: Homo sapiens, T-cell, 4 μM compound; primary human total T-cells; baseline = anti-CD3/anti-CD28 stimulated cells without inhibitor; read-out: CD25 staining, Anti-CD3/Anti-CD28 stimulation, fold change over baseline
TEST READOUT: fold induction at 4 µM

Here are 3 molecules together with their reported answers.
Inquiry: Item "C[C@H](Cc1nncn1C)c1cccc(N2Cc3c(cc(CN4CC[C@](C)(O)C4)cc3C(F)(F)F)C2=O)c1" has what recorded fold induction at 4 µM?
Reply text: 1.31 to 1.5

Inquiry: Okay, and C[C@@H](c1cccc(N2Cc3c(cccc3C(F)(F)F)C2=O)c1)C(F)c1nncn1C (stereo in doubt) ?
Reply text: 1.01 to 1.3

Inquiry: Okay, and "C[C@H](c1cc2c(c(C(F)(F)F)c1)CN(c1cccc([C@@](C)(F)C(F)(F)c3nncn3C)c1)C2=O)N1CC[C@H](F)C1" ?
Reply text: 1.51 to 1.75

Others:
Inquiry: Item "Cc1cc2c(c(C3CC3)n1)CN(c1cccc([C@H](C)Cc3nncn3C)c1)C2=O" has what recorded fold induction at 4 µM?
Reply text: 1.01 to 1.3
